These data points were gathered from patent US11053250B2.

system: TNFα; assay: IRAK4 Monocyte TNFα Cell Based Assay; conditions: cryopreserved human monocytes, LPS 50 pg/ml stimulation, TNFα by TR-FRET
endpoint label: EC50 (µM)

| compound | endpoint label | measured result |
| --- | --- | --- |
| CC(=O)N[C@H]1CC[C@H](c2cn(-c3cnc(-c4ccc5cc(C#N)cnn45)cc3NC(C)C)nn2)CC1 | EC50 | 0.075 |

P: COC(=O)NC[C@H]1C[C@H](Nc2cc(-c3ccc4cc(C#N)cnn34)ncc2-c2cn(CC(F)(F)F)nn2)C1
Q: COC(=O)NC[C@H]1C[C@H](Nc2cc(-c3ccc4cc(C#N)cnn34)ncc2-c2cn(CCC(C)(C)O)nn2)C1
R: COC(=O)NCC1CC(Nc2cc(-c3ccc4cc(C#N)cnn34)ncc2-c2cn(C3CC(O)C3)nn2)C1 (stereo not shown)
Request: Output the entries ranked by EC50 from maximum down to minimum. Provide your answer as the labels ordered per the instruction.
Response: P, R, Q
